Hi there, I'd appreciate the recorded MIC50 for every entry that follows.
test system: Klebsiella pneumoniae; test: Antibacterial activity against Klebsiella pneumoniae B expressing CTX-M group 1 beta-lactamase by Etest method; format: functional
Give bare numbers, in µg/mL.

Answered examples (2):
query_smiles: NCC[C@H](O)C(=O)N[C@@H]1C[C@H](N)[C@@H](O[C@H]2O[C@H](CN)[C@@H](O)[C@H](O)[C@H]2O)[C@H](O)[C@H]1O[C@H]1O[C@H](CO)[C@@H](O)[C@H](N)[C@H]1O
unit_spec: µg/mL
MIC50: 6
//
query_smiles: CO[C@@]1(NC(=O)Cc2cccs2)C(=O)N2C(C(=O)O)=C(COC(N)=O)CS[C@@H]21
unit_spec: µg/mL
MIC50: 8

Qu. Item CC(C)(O/N=C(\C(=O)N[C@@H]1C(=O)N2C(C(=O)[O-])=C(C[n+]3ccccc3)CS[C@H]12)c1csc(N)n1)C(=O)O has what recorded MIC50?
Ans. 32

* * *

test system: Klebsiella pneumoniae; experiment: Antibacterial activity against Klebsiella pneumoniae B expressing CTX-M group 1 beta-lactamase by Etest method; format: functional
reported_property: MIC50 (µg/mL)
Answers are plain numbers, in µg/mL.

// batch mode: one MIC50 value per listed entry
1. CO/N=C(\C(=O)N[C@@H]1C(=O)N2C(C(=O)[O-])=C(C[N+]3(C)CCCC3)CS[C@H]12)c1csc(N)n1
2. C[C@@H](O)[C@H]1C(=O)N2C(C(=O)O)=C(SCCNC=N)C[C@H]12 [IMIPENEM ANHYDROUS]
3. CC1(C)S[C@@H]2[C@H](NC(=O)[C@H](N)c3ccc(O)cc3)C(=O)N2[C@H]1C(=O)O [AMOXICILLIN]

Ans.
[16, 0.19, 16]

* * *

system: Klebsiella pneumoniae; test: Antibacterial activity against Klebsiella pneumoniae expressing CTX-M group 1 beta-lactamase by Etest method; type: functional
reported_property: MIC50 (µg/mL)
Answers are plain numbers, in µg/mL.

Record excerpt, results attached:
compound: CO[C@@]1(NC(=O)Cc2cccs2)C(=O)N2C(C(=O)O)=C(COC(N)=O)CS[C@@H]21
unit_spec: µg/mL
meas_value: 3
--
compound: NCC[C@H](O)C(=O)N[C@@H]1C[C@H](N)[C@@H](O[C@H]2O[C@H](CN)[C@@H](O)[C@H](O)[C@H]2O)[C@H](O)[C@H]1O[C@H]1O[C@H](CO)[C@@H](O)[C@H](N)[C@H]1O
unit_spec: µg/mL
meas_value: 16
--
compound: C[C@@H](O)[C@H]1C(=O)N2C(C(=O)O)=C(SCCNC=N)C[C@H]12 [IMIPENEM ANHYDROUS]
unit_spec: µg/mL
meas_value: 0.25
--
compound: CC1(C)S[C@@H]2[C@H](NC(=O)[C@H](N)c3ccc(O)cc3)C(=O)N2[C@H]1C(=O)O
unit_spec: µg/mL
meas_value: 16
--
compound: O=C(O)c1cn(C2CC2)c2cc(N3CCNCC3)c(F)cc2c1=O
unit_spec: µg/mL
meas_value: 16

Attention now turns to another entry.
Qu. Given the entry CC(C)(O/N=C(\C(=O)N[C@@H]1C(=O)N2C(C(=O)[O-])=C(C[n+]3ccccc3)CS[C@H]12)c1csc(N)n1)C(=O)O , report its measured MIC50.
Ans. 48

* * *

tested on: Klebsiella pneumoniae; experiment: Antibacterial activity against Klebsiella pneumoniae expressing CTX-M group 1 beta-lactamase by Etest method; format: functional
reported_property: MIC90 (µg/mL)
Numbers only, in µg/mL.

Here's what some known entries look like.
molecule: C[C@@H](O)[C@H]1C(=O)N2C(C(=O)O)=C(SCCNC=N)C[C@H]12 [IMIPENEM ANHYDROUS]
meas_value: 0.5
//
molecule: NCC[C@H](O)C(=O)N[C@@H]1C[C@H](N)[C@@H](O[C@H]2O[C@H](CN)[C@@H](O)[C@H](O)[C@H]2O)[C@H](O)[C@H]1O[C@H]1O[C@H](CO)[C@@H](O)[C@H](N)[C@H]1O
meas_value: 32
//
molecule: CO[C@@]1(NC(=O)Cc2cccs2)C(=O)N2C(C(=O)O)=C(COC(N)=O)CS[C@@H]21
meas_value: 48

--- query ---
Qu. Look at this molecule and give its reported MIC90. CC(C)(O/N=C(\C(=O)N[C@@H]1C(=O)N2C(C(=O)[O-])=C(C[n+]3ccccc3)CS[C@H]12)c1csc(N)n1)C(=O)O
Ans. 128

* * *

Field: MIC50. Provide a value for each of the compounds that follow.
test system: Klebsiella pneumoniae; test: Antibacterial activity against Klebsiella pneumoniae A expressing CTX-M group 1 beta-lactamase by Etest method; assay type: functional
Answers are plain numbers, in µg/mL.

compound: CO[C@@]1(NC(=O)Cc2cccs2)C(=O)N2C(C(=O)O)=C(COC(N)=O)CS[C@@H]21
reported_property: MIC50
meas_value: 4

compound: NCC[C@H](O)C(=O)N[C@@H]1C[C@H](N)[C@@H](O[C@H]2O[C@H](CN)[C@@H](O)[C@H](O)[C@H]2O)[C@H](O)[C@H]1O[C@H]1O[C@H](CO)[C@@H](O)[C@H](N)[C@H]1O
reported_property: MIC50
meas_value: 48

compound: CC1(C)S[C@@H]2[C@H](NC(=O)[C@H](N)c3ccc(O)cc3)C(=O)N2[C@H]1C(=O)O
reported_property: MIC50
meas_value: 8

compound: CC(C)(O/N=C(\C(=O)N[C@@H]1C(=O)N2C(C(=O)[O-])=C(C[n+]3ccccc3)CS[C@H]12)c1csc(N)n1)C(=O)O
reported_property: MIC50
meas_value: 32

compound: O=C(O)c1cn(C2CC2)c2cc(N3CCNCC3)c(F)cc2c1=O
reported_property: MIC50
meas_value: 1

Next:
Qu. API: value(readout= MIC50, system= Klebsiella pneumoniae, query= C[C@@H](O)[C@H]1C(=O)N2C(C(=O)O)=C(SCCNC=N)C[C@H]12 [IMIPENEM ANHYDROUS] )
Ans. 0.25

* * *

system: Klebsiella pneumoniae; assay: Antibacterial activity against Klebsiella pneumoniae C expressing CTX-M group 1 beta-lactamase by Etest method; assay type: functional
reported_property: MIC90

Required: MIC90, one value per molecule below.
1. CO/N=C(\C(=O)N[C@@H]1C(=O)N2C(C(=O)O)=C(COC(C)=O)CS[C@H]12)c1csc(N)n1
2. C[C@@H](O)[C@H]1C(=O)N2C(C(=O)O)=C(SCCNC=N)C[C@H]12 [IMIPENEM ANHYDROUS]
3. O=C(O)c1cn(C2CC2)c2cc(N3CCNCC3)c(F)cc2c1=O
4. CO[C@@]1(NC(=O)Cc2cccs2)C(=O)N2C(C(=O)O)=C(COC(N)=O)CS[C@@H]21
5. CC(C)(O/N=C(\C(=O)N[C@@H]1C(=O)N2C(C(=O)[O-])=C(C[n+]3ccccc3)CS[C@H]12)c1csc(N)n1)C(=O)O
6. NCC[C@H](O)C(=O)N[C@@H]1C[C@H](N)[C@@H](O[C@H]2O[C@H](CN)[C@@H](O)[C@H](O)[C@H]2O)[C@H](O)[C@H]1O[C@H]1O[C@H](CO)[C@@H](O)[C@H](N)[C@H]1O
7. CC1(C)S[C@@H]2[C@H](NC(=O)[C@H](N)c3ccc(O)cc3)C(=O)N2[C@H]1C(=O)O

Ans.
["> 256 µg/mL", "0.38 µg/mL", "> 32 µg/mL", "48 µg/mL", "> 256 µg/mL", "16 µg/mL", "64 µg/mL"]

* * *

test system: Escherichia coli; assay: Antibacterial activity against Escherichia coli TrC C expressing Klebsiella pneumoniae C blaCTX-M beta-lactamase by Etest method; format: functional
reported_property: log10 of MIC (log10 of the value in µg/mL)
Quick note: numbers are log10 of MIC, with µg/mL as the unit.

Solved entries:
query_smiles: CO/N=C(\C(=O)N[C@@H]1C(=O)N2C(C(=O)O)=C(COC(C)=O)CS[C@H]12)c1csc(N)n1
tgt: Escherichia coli
meas_value: 2.41
--
query_smiles: NC[C@H]1O[C@H](O[C@H]2[C@H](O)[C@@H](O[C@H]3O[C@H](CO)[C@@H](O)[C@H](N)[C@H]3O)[C@H](N)C[C@@H]2N)[C@H](N)C[C@@H]1O
tgt: Escherichia coli
meas_value: 1.20

Provide log10 of MIC for all items below, preserving their order.
1. CO[C@@]1(NC(=O)Cc2cccs2)C(=O)N2C(C(=O)O)=C(COC(N)=O)CS[C@@H]21
2. NCC[C@H](O)C(=O)N[C@@H]1C[C@H](N)[C@@H](O[C@H]2O[C@H](CN)[C@@H](O)[C@H](O)[C@H]2O)[C@H](O)[C@H]1O[C@H]1O[C@H](CO)[C@@H](O)[C@H](N)[C@H]1O

Ans.
0.90
0.60

Qu. Which value of log10 of MIC has been reported for CC(C)(O/N=C(\C(=O)N[C@@H]1C(=O)N2C(C(=O)[O-])=C(C[n+]3ccccc3)CS[C@H]12)c1csc(N)n1)C(=O)O in the records?
Ans. 2.11

Measured values drawn from ChEMBL document CHEMBL1629585 for this set.
